# assayedSystem: human plasma kallikrein (human, UniProt P03952 20-638)
# Sequence (P03952 20-638): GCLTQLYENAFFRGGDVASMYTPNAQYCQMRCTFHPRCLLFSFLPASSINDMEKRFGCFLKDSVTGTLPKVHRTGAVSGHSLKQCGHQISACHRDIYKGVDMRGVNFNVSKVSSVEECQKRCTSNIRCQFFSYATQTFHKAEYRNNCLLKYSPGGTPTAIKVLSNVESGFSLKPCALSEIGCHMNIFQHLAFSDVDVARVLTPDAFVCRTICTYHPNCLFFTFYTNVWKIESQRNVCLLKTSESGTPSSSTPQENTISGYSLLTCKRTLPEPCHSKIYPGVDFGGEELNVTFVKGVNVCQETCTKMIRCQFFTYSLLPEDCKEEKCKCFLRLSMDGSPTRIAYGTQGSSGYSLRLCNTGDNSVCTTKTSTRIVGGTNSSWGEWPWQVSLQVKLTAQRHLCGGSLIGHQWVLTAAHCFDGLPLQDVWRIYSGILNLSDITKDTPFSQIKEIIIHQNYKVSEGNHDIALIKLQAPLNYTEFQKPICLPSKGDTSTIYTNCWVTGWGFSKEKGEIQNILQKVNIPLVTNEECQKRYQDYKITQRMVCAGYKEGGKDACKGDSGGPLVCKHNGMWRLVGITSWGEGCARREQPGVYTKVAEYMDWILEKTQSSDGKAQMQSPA
# testDescription: enzyme inhibition
endpointLabel: Ki (nM)
Answers are plain numbers, in nM.

{"binder": "TW6181 (protein) EVVREVCSEQAETGPCRAMKSRWYFDVTEGKCAPFFYGGCGGNRNNFDTEEYCMAVCGSAI", "Ki, nM": 150}

# batch size: 5; output Ki per entry
1. TW6163 (protein) EVVREVCSEQAETGPCRAMHSRWYFDVTEGKCAPFFYGGCGGNRNNFDTEEYCMAVCGSAI
2. TW6180 (protein) EVVREVCSEQAETGPCRAMFSRWYFDVTEGKCAPFFYGGCGGNRNNFDTEEYCMAVCGSAI
3. TW6194 (protein) EVVREVCSEQAETGPCRAMIERWYFDVTEGKCAPFFYGGCGGNRNNFDTEEYCMAVCGSAI
4. DD104 (protein) EVVREVCSEQAETGPCRAMIYRWYFDVTEGKCAPFFYGGCGGNRNNFDTEEYCMAVCGSAI
5. DD103 (protein) EVVREVCSEQAETGPCRAMIFRWYFDVTEGKCAPFFYGGCGGNRNNFDTEEYCMAVCGSAI

[4.7, 70, 70.8, 15, 17]

I need Ki for every entry listed below, if you could help.
1. BG001 (protein) EVVREVCSEQAETGPCRAMLSRWYFDVTEGKCAPFFYGGCGGNRNNFDTEEYCMAVCGSAI
2. TW6182 (protein) EVVREVCSEQAETGPCRAMIHRWYFDVTEGKCAPFFYGGCGGNRNNFDTEEYCMAVCGSAI
3. DD105 (protein) EVVREVCSEQAETGPCRAMIWRWYFDVTEGKCAPFFYGGCGGNRNNFDTEEYCMAVCGSAI

[38, 36, 18]

Data provenance is patent US6906033.
